B1: Homeobox expressed in ES cells 1, residues 110 to 165; numbered along this chain, Q9UBX0 (parent)
chain: RPRTAFTQNQIEVLENVFRVNCYPGIDIREDLAQKLNLEEDRIQIWFQNRRAKLKR

Variants of: B1
Assay: abundance fitness (aPCA) (normalised: wild type 0, dead -1); higher = more abundant; growth selection in yeast, the domain comes from the species named
Conditions: Homo sapiens
Recorded measurements of abundance fitness, one per entry
The response must contain the number and no unit.

Example entries and their recorded answers appear below.
[[record]]
mutation_id = "Y23N"
result_number = 0.114

[[record]]
mutation_id = "N16L"
result_number = -0.561

[[record]]
mutation_id = "T4N"
result_number = -0.067

[[record]]
mutation_id = "I26L"
result_number = 0.151

[[record]]
mutation_id = "N16Q"
result_number = -0.073


Req: For the variant I26W , what abundance fitness is on record?
Resp: -0.138

Req: Now try I28Q .
Resp: -0.171

Source: the Human Domainome abundance scans (Beltran et al. 2025)
